target: Pol II (Homo sapiens); construct: HeLaScribe® nuclear extract containing Pol II and all other transcription factors; purchased Promega; host or cells: HeLa nuclear extract (endogenous protein); assay: In vitro transcription runoff assay using HeLaScribe nuclear extract; type: biochemical; conditions: 100 nM; mean ± standard deviation
Starred links: 1 amine or outer side, 2 acyl side, 3 side chain; linkers in the order of their positions; H or OH if unused. Positions of bridges follow the written chain, without caps; N, C: chain ends. Non-standard residues stand in square brackets, D forms with d. Residues, ends and D or L forms follow the SMILES beside them. Trp(2-yl) = O=C([C@H](Cc1c([*:3])[nH]c2ccccc12)N[*:1])[*:2]; Pro(trans-4-guanidino) = N=C(N)N[C@H]1CN[C@H](C(=O)O)C1; Pro(4R-SH) = O=C([C@@H]1C[C@@H](S[*:3])CN1[*:1])[*:2]; Ile(4R-OH,5-OH) = C[C@H]([C@H](N)C(=O)O)[C@@H](O)CO; X1 = N#C[C@@H]1C[C@@H](C(=O)[*:2])N([*:1])C1; Pro(4R-NH2) = N[C@H]1CN[C@H](C(=O)O)C1
Please provide measured Transcription activity E (%) for the entries that follow.
Quick note: number first, unit second.

Here's what some known entries look like.
Query the reported Transcription activity E (%) for Pol II (Homo sapiens); item: CC[C@H](C)[C@@H]1NC(=O)CNC(=O)[C@@H]2Cc3c([nH]c4ccccc34)SC[C@H](NC(=O)CNC1=O)C(=O)N[C@@H](CC(N)=O)C(=O)N1C[C@H](N)C[C@H]1C(=O)N[C@@H]([C@@H](C)[C@@H](O)CO)C(=O)N2 [Compound 6, NH2-Pro-amanitin] (cyclo(CN[Pro(4R-NH2)][Ile(4R-OH,5-OH)][Trp(2-yl)]GIG); thioether 1-5) 82.3 ± 12.8%

Query the reported Transcription activity E (%) for Pol II (Homo sapiens); item: CC[C@H](C)[C@@H]1NC(=O)CNC(=O)[C@@H]2Cc3c([nH]c4ccccc34)SC[C@H](NC(=O)CNC1=O)C(=O)N[C@@H](CC(N)=O)C(=O)N1C[C@H](C#N)C[C@H]1C(=O)N[C@@H]([C@@H](C)[C@@H](O)CO)C(=O)N2 [Compound 4, CN-Pro-amanitin] (cyclo(CN[X1][Ile(4R-OH,5-OH)][Trp(2-yl)]GIG); thioether 1-5) 74.0 ± 13.0%

Query the reported Transcription activity E (%) for Pol II (Homo sapiens); item: CC[C@H](C)[C@@H]1NC(=O)CNC(=O)[C@@H]2Cc3c([nH]c4ccccc34)SC[C@H](NC(=O)CNC1=O)C(=O)N[C@@H](CC(N)=O)C(=O)N1C[C@H](S)C[C@H]1C(=O)N[C@@H]([C@@H](C)[C@@H](O)CO)C(=O)N2 [Compound 5, SH-Pro-amanitin] (cyclo(CN[Pro(4R-SH)][Ile(4R-OH,5-OH)][Trp(2-yl)]GIG); thioether 1-5) 91.2 ± 18.5%

Continue with the compound presented below.
Query the reported Transcription activity E (%) for Pol II (Homo sapiens); item: CC[C@H](C)[C@@H]1NC(=O)CNC(=O)[C@@H]2Cc3c([nH]c4ccccc34)SC[C@H](NC(=O)CNC1=O)C(=O)N[C@@H](CC(N)=O)C(=O)N1C[C@H](NC(=N)N)C[C@H]1C(=O)N[C@@H]([C@@H](C)[C@@H](O)CO)C(=O)N2 [Compound 7, Gdn-Pro-amanitin] (cyclo(CN[Pro(trans-4-guanidino)][Ile(4R-OH,5-OH)][Trp(2-yl)]GIG); thioether 1-5) 76.1 ± 13.2%

Numbers sourced from patent US20240082416A1.
